- TARGET_DESC: T1, soluble extracellular domain of human α-Klotho (aa 1-980) fused to a 6xHis tag (human, UniProt Q9UEF7 34-980)
- T1 construct: Secreted from HEK293 EBNA cells; also called sKLA; soluble α-Klotho
- T1 sequence: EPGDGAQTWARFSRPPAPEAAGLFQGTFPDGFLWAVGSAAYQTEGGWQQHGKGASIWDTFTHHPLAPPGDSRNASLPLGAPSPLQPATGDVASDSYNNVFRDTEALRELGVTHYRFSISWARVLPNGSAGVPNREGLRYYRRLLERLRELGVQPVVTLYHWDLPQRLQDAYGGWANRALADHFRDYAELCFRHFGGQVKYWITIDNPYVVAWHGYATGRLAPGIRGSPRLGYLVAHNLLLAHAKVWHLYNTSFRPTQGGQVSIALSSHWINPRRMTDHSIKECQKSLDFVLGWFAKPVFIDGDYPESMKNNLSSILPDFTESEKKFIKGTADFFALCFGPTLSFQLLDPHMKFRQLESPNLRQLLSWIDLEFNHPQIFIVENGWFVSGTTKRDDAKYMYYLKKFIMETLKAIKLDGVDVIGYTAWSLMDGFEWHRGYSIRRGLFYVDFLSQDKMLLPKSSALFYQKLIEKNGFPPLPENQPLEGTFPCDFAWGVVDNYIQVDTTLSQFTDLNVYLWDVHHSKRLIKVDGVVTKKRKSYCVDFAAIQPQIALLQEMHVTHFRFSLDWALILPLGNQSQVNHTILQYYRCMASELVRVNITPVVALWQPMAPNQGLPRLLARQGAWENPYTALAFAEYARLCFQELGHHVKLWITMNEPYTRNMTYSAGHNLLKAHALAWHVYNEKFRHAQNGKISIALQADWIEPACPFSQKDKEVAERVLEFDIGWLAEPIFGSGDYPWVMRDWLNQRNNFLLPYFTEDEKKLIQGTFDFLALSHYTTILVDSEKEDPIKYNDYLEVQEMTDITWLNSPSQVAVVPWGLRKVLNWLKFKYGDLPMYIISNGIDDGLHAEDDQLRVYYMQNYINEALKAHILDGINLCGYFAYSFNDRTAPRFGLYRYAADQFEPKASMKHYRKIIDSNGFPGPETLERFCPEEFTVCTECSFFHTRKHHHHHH
- ASSAY_DETAILS: BLI (Octet); GST fusion captured on anti-GST biosensor, sKLA in solution at 6.25-200 nM, 1:1 fit, mean ± S.D. of 3 experiments
No end group written: not given here.
PARAMETER: pKd
# log scale: pKd equals minus log10 of the concentration in mol/L

1. SAEDNSPMASDPLGVVRGGRVNTHAGGTGPEG (other, not fully specified; also: fused to glutathione S-transferase (pGEX4T1), vector linker residues not given here, The plasmid limits are used here; also called GST-R2; not shown: glutathione S-transferase encoded by the pGEX4T1 vector (GE Healthcare)) [GST fusion of repeat 2 (R2) of the human FGF23 C-terminal tail]: 7.77
2. SAEDDSERDPLNVLKPRARMTPAPAS (other, also: GST fusion partner (recombinant, not part of given chain), Expressed in E. coli; also called GST-R1; not shown: glutathione S-transferase encoded by the pGEX4T1 vector (GE Healthcare)) [GST fusion of repeat 1 (R1, aa 180-205) of the human FGF23 C-terminal tail]: 7.70

Turning to the following binder.
q: Would you mind telling me what pKd value was observed for GST fusion of the full-length C-terminal tail of human FGF23 (aa 180-251) (other, Expressed in E. coli BL21-Gold (DE3); also called GST-FL; FL tail of FGF23; not shown: glutathione S-transferase encoded by the pGEX4T1 vector (GE Healthcare)) SAEDDSERDPLNVLKPRARMTPAPASCSQELPSAEDNSPMASDPLGVVRGGRVNTHAGGTGPEGCRPFAKFI ?
a: 7.82
